tgt: Epidermal growth factor receptor (Homo sapiens, UniProt P00533)
Sequence (P00533 25-1210 limits assumed, stated change not applied): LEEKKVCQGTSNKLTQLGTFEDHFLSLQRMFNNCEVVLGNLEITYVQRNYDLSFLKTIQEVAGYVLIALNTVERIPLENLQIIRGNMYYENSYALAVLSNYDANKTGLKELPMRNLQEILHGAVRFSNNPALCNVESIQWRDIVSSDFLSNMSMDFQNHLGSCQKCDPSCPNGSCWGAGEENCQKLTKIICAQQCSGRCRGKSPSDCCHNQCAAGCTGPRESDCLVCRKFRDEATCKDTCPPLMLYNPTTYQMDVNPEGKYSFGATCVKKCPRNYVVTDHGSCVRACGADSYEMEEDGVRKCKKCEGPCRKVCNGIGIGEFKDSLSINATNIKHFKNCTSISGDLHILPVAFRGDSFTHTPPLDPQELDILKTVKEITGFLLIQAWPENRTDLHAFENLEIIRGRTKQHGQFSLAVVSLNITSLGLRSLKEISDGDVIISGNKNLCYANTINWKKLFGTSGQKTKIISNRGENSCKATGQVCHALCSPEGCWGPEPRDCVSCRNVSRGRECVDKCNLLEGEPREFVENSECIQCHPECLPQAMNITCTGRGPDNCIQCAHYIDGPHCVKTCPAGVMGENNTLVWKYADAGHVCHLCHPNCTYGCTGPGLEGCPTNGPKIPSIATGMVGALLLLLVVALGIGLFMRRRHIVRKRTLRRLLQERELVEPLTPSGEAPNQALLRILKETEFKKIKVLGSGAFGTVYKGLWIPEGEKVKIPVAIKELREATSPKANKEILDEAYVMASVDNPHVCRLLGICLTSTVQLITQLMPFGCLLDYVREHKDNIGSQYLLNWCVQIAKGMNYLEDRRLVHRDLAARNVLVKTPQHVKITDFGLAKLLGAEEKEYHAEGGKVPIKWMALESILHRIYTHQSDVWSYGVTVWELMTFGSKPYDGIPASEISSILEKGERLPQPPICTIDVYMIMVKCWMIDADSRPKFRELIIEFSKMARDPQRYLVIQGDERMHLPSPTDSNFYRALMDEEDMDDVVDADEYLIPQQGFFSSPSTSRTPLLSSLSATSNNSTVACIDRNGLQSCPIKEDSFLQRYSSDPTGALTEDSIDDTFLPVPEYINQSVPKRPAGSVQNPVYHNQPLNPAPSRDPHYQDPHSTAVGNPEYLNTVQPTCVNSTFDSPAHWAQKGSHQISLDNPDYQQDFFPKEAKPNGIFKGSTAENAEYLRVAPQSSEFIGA
method_description: Kinase Inhibition Assay: Reagents and Materials:WT EGFR (Carna, Cat. No. 08-115), EGFR [L858R] (Carna, Cat. No. 08-502), EGFR [L858R/T790M] (Carna, Cat. No. 08-510), ATP (Sigma, Cat. No. A7699-1G), DMSO (Sigma, Cat. No. D2650), 96-well plate (Corning, Cat. No. 3365), 384-well plate (Greiner, Cat. No. 784076), HTRF Kinase TK Kit (Cisbio, Cat. No. 62TK0PEJ), Erlotinib (Selleckchem, Cat. No. S7787) …
Description: Then, it was diluted in DMSO with a 3-fold series gradient dilution for 10 times. […] The corresponding substrate and ATP were added and reacted at room temperature for 20 minutes (in which a negative and a positive control were set: the negative control is blank and the positive control is erlotinib). […] The inhibitions of the enzyme activity by the compounds at different concentrations were then fitted using Graphpad 5.0 software according to the four-parameter equation, and the IC50 values were calculated.
pIC50: −log10 of the molar value.
endpoint_label: pIC50

Would you kindly share the measured pIC50 for C=CC(=O)Nc1cc(Nc2nccc(-c3cc(F)c4nc(C)n(C(C)C)c4c3)n2)c(OC)cc1N1CCC(OC)CC1 ? < 7.00
